# assay.procedure: Intrinsic clearance in CD-1 mouse liver microsomes at 0.5 uM after 30 mins in presence of NADPH by UPLC-MS/MS analysis
# Format: ADME, microsome
# condition.info: 0.5 h
Lab note: compare CLH against 20 mL/min/g. Equal or greater, write y. Smaller, write n.

COc1cc(Nc2nccc(N(C)C)n2)ccc1F: y
Cc1cc(N(C)C)nc(NCc2ccc(Cl)cc2)n1: n

QUERY: Could you please find out whether "COc1cc(Nc2nc(CO)cc(N(C)C)n2)ccc1F" has CLH that meets 20 mL/min/g or exceeds it?
RESULT: y

QUERY: Param item: "COc1cc(Nc2nc(C(=O)N3CCCC3)cc(N(C)C)n2)ccc1F"
RESULT: n

QUERY: Param item: "COc1cc(Nc2nc(C)cc(N(C)C)n2)ccc1F"
RESULT: n

All figures here come from ChEMBL document CHEMBL4229528.
